Target: T1, Human TREM2 protein, on cells (human, UniProt Q9NZC2 19-230)
T1 sequence: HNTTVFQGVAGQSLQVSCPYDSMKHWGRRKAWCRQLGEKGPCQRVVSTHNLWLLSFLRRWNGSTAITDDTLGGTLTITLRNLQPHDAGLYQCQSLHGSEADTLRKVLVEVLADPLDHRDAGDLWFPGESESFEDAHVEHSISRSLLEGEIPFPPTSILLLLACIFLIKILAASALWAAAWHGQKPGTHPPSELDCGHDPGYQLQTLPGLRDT
Assay: cell-based or functional assay
readout: pSyk FOB (30 nM Ab)

I have this binder here, 42E8.H1 (antibody, V domains shown, Mouse hybridoma antibody, Ig2a, k; also called RS8.42E8.H1) VH: DVQLQESGPGLVKPSQSLSLTCTVTGYSITSDYAWNWIRQFPGNKLEWMGYINYSGRTIYNPSLKSRISITRDTSKNHFFLQLISVTTEDTATYYCARWNGNYGFAYWGQGTLVTVSA VL: DVVMTQNPLSLPVSLGDQASISCRSSQSLVHINGNTYLHWYLQKPGQSPKLLIYKVSNRFSGVPDRFSGSGSGTDFTLKISRVEAEDLGVYFCSQTTHALFTFGSGTKLEIK , and I need its recorded pSyk FOB (30 nM Ab).
7.17 fold over background

***
I have this binder here, 7B10.A2 (antibody, V domains shown) VH: EVQLQQSGPELVKPGASVKMSCKASGYTFTDYNMHWVKQSHGKSLEWIGYINPNNGGTTYNQKFKGKATLTVNKSSSTAYMELRSLTSEDSAVYYCATYNNHYFDSWGQGTTLTVSS VL: DIQMTQTTSSLSASLGDRVTISCSASQGISNYLNWYQQKPDGTVKLLIYYTSNLHSGVPSRFSGSGSGTDYSLTISNLEPEDIATYYCQQYSNLPYTFGGGTKLEIK , and I need its recorded pSyk FOB (30 nM Ab).
6.89 fold over background
